Experiment: Storage stability of FlucmRNA-loaded LNP at −80, 5, 25 and 40° C.
Assay type: physicochemical
Conditions: maximum storage period 5 weeks
OUTCOME_MEASURE: period for which quality remained good, 40° C. (weeks)

Solved cases below.
CCCCCCCCC(CCCCCCCC)C(=O)OCCCCCCC(O)(CCCCCCOC(=O)C(CCCCCCCC)CCCCCCCC)CCCCOC(=O)C1CCN(C)CC1 [CL15F 10-8] = 5
CCCCCCCC(CCC)C(=O)OCCCCCCC(O)(CCCCCCOC(=O)C(CCC)CCCCCCC)CCCCOC(=O)C1CCN(C)CC1 (stereo not drawn) [CL15F 9-3] = 5

[A] CCCCCCCCCCCCCCC(C)C(=O)OCCCCCCC(O)(CCCCCCOC(=O)C(C)CCCCCCCCCCCCCC)CCCCOC(=O)C1CCN(C)CC1 (stereo not drawn) [CL15F 16-1]
[B] CCCCCCCCCC(CCCCCC)C(=O)OCCCCCCC(O)(CCCCCCOC(=O)C(CCCCCC)CCCCCCCCC)CCCCN(CCC)CCC (stereo not drawn)
Problem: Parameter check: reported period for which quality remained good, 40° C. (weeks) is higher for which label, A or B ? Write down the label attached to your selection.
Solution: B

====

Assay: Zeta potential in 10 mM HEPES buffer (pH 7.4)
Type: physicochemical
Conditions: pFluc-loaded LNP, N/P ratio 6
OUTCOME_MEASURE: ζ-potential (mV)

[P] CCCCCCCC/C=C\CCCCCCCC(=O)OCCCCCCC(O)(CCCCCCOC(=O)CCCCCCC/C=C\CCCCCCCC)CCCCOC(=O)C1CCN(C)CC1 [CL15H6, reference compound]
[Q] CCCCCCCCC(CCCCCC)C(=O)OCCCCCCC(O)(CCCCCCOC(=O)C(CCCCCC)CCCCCCCC)CCCCN(CCC)CCC (stereo not drawn) [CL4F6]
Problem: Could you check which of P and Q has a smaller value for ζ-potential (mV)? Write down the label attached to your selection.
Solution: Q
(Q: −5.17 mV, P: 0.367 mV)

====

Test: siRNA/mRNA encapsulation rate by Ribogreen reagent (section IV)
Type: physicochemical
Conditions: FlucmRNA-loaded LNP, 50:10:38.5:1.5
OUTCOME_MEASURE: % mRNA encapsulation (%)

CCCCCCCC(CCCCCC)C(=O)OCCCCCCC(O)(CCCCCCOC(=O)C(CCCCCC)CCCCCCC)CCCCN(CCC)CCC (centres unmarked) = 99.1

[a] CCCCC(CCCC)C(=O)OCCCCCCC(O)(CCCCCCOC(=O)C(CCCC)CCCC)CCCCOC(=O)C1CCN(C)CC1 [CL15F 6-4]
[b] CCCCCCCC(CCCC)C(=O)OCCCCCCC(O)(CCCCCCOC(=O)C(CCCC)CCCCCCC)CCCCN(CCC)CCC (centres unmarked)
Problem: Could you check which of a and b has a smaller value for % mRNA encapsulation? Write down the label attached to your selection.
Solution: a

====

Experiment: siRNA/mRNA encapsulation rate by Ribogreen reagent (section IV)
Format: physicochemical
Settings: F7siRNA-loaded LNP, 50:10:38.5:1.5, N/P ratio 6
OUTCOME_MEASURE: % siRNA encapsulation (%)

CCCCCC(CCC)C(=O)OCCCCCCC(O)(CCCCCCOC(=O)C(CCC)CCCCC)CCCCOC(=O)C1CCN(C)CC1 (stereo not shown) [CL15F 7-3] = 95.7
CCCCCCCCCCC(CCCCCCCCCC)C(=O)OCCCCCCC(O)(CCCCCCOC(=O)C(CCCCCCCCCC)CCCCCCCCCC)CCCCOC(=O)C1CCN(C)CC1 [CL15F 12-10] = 100.5
CCCCCCCCC(CCCCCC)C(=O)OCCCCCCC(O)(CCCCCCOC(=O)C(CCCCCC)CCCCCCCC)CCCCN(CCC)CCC (stereo not shown) [CL4F6] = 99.9
CCCCCCCCC(CCCCCCC)C(=O)OCCCCCCC(O)(CCCCCCOC(=O)C(CCCCCCC)CCCCCCCC)CCCCN(CCC)CCC (stereo not shown) [CL4F 10-7] = 100.1
CCCCCCCCCC(CCCCC)C(=O)OCCCCCCC(O)(CCCCCCOC(=O)C(CCCCC)CCCCCCCCC)CCCCOC(=O)C1CCN(C)CC1 (stereo not shown) [CL15F 11-5] = 100.3

[A] CCCCC(CC)C(=O)OCCCCCCC(O)(CCCCCCOC(=O)C(CC)CCCC)CCCCN(CCC)CCC (stereo not shown) [CL4F 6-2]
[B] CCCCCCCCCCCCCCC(C)C(=O)OCCCCCCC(O)(CCCCCCOC(=O)C(C)CCCCCCCCCCCCCC)CCCCN(CCC)CCC (stereo not shown) [CL4F 16-1]
Problem: Parameter check: reported % siRNA encapsulation is higher for which label, A or B ? Write down the label attached to your selection.
Solution: B
